APTT overview
species: Rattus norvegicus; assay: Open TG-GATES - Regimen: Single; format: toxicity, organism-based, Sprague-Dawley; set-up: regimen Single, gender Male, age 6 weeks; conditions: in vivo, po, 0 mg/kg, 24 h, tissue Blood, route gavage, dose level Control
Hi, when you answer, please include the unit after the number. Thanks!

Report APTT for CC[C@H]1[C@@H]2C[C@H]3[C@@H]4N(C)c5ccccc5[C@]45C[C@@H]([C@@H]2[C@H]5O)N3[C@@H]1O [AJMALINE]
16.5 s

Report APTT for OCCOCCN1CCN(C(c2ccccc2)c2ccc(Cl)cc2)CC1 (stereo not given) [HYDROXYZINE]
15.6 s

Report APTT for CCC1(c2ccccc2)C(=O)NC(=O)NC1=O [PHENOBARBITAL]
20.3 s

Report APTT for CCc1oc2ccccc2c1C(=O)c1cc(Br)c(O)c(Br)c1 [BENZBROMARONE]
15.9 s

Report APTT for CN(C)CCC=C1c2ccccc2COc2ccccc21 [DOXEPIN]
18.6 s

Report APTT for CC1=C(CC(=O)O)c2cc(F)ccc2/C1=C\c1ccc([S+](C)[O-])cc1 (stereo not given)
16 s

Report APTT for O=NN(CCCl)C(=O)NC1CCCCC1 [LOMUSTINE]
16 s

Report APTT for ClC(Cl)(Cl)Cl [CARBON TETRACHLORIDE]
18.1 s

Report APTT for CN(C)C(=N)N=C(N)N [METFORMIN]
16.4 s

Report APTT for CC(C)N(CCC(C(N)=O)(c1ccccc1)c1ccccn1)C(C)C (stereo not given) [DISOPYRAMIDE]
21.9 s
